Taken from the SangsterLogP compilation.

test: method code SF-HPLC, from DOI: 10.1016/j.ejmech.2014.10.073, PMID: 25462263; settings: pH 7.4
Metric: logD

                          compound_structure  metric  number
 0  CCOc1cc(CC(=O)OC(C)C)cc(F)c1OCC(=O)N(CC)CC    logD    2.46
 1  CCOc1cc(CC(=O)OCCC(F)(F)F)c(F)cc1OCC(=O)N(CC)CC    logD    3.06
 2   CCOC(=O)Cc1cc(OCC)c(OCC(=O)N(CC)CC)cc1F    logD    2.57
 3  CCOc1cc(CC(=O)OCC(F)(F)F)c(F)cc1OCC(=O)N(CC)CC    logD     2.9
 4  CCCOC(=O)Cc1cc(OCC)c(OCC(=O)N(CC)CC)cc1F    logD    2.72
 5    CCOC(=O)Cc1ccc(OCC(=O)N(CC)CC)c(F)c1OC    logD    2.29
 6  CCN(CC)C(=O)COc1cc(F)c(CC(=O)OCC(F)(F)F)cc1OC    logD    2.49
 7  CCOc1cc(CC(=O)OCCC(F)(F)F)cc(F)c1OCC(=O)N(CC)CC    logD     3.1
 8  CCOc1cc(CC(=O)OCC(F)(F)F)cc(F)c1OCC(=O)N(CC)CC    logD    2.78
 9  CCN(CC)C(=O)COc1c(F)cc(CC(=O)OCCC(F)(F)F)cc1OC    logD    2.81
10   CCCOC(=O)Cc1ccc(OCC(=O)N(CC)CC)c(OCC)c1    logD    2.67
11  CCOc1cc(CC(=O)OC(C)C)c(F)cc1OCC(=O)N(CC)CC    logD    2.59
12  CCOC(=O)Cc1cc(F)c(OCC(=O)N(CC)CC)c(OCC)c1    logD    2.41
13    CCOC(=O)Cc1cc(OC)c(OCC(=O)N(CC)CC)cc1F    logD    2.07
14  CCN(CC)C(=O)COc1cc(F)c(CC(=O)OCCC(F)(F)F)cc1OC    logD    2.94
15    CCCOC(=O)Cc1ccc(OCC(=O)N(CC)CC)c(OC)c1    logD     2.6
16  CCOc1cc(CC(=O)OCC(C)C)c(F)cc1OCC(=O)N(CC)CC    logD    3.03
17  CCCOc1cc(CC(=O)OC(C)C)c(F)cc1OCC(=O)N(CC)CC    logD    2.95
18  CCN(CC)C(=O)COc1c(F)cc(CC(=O)OCC(F)(F)F)cc1OC    logD    2.51
19  CCN(CC)C(=O)COc1ccc(CC(=O)OCCC(F)(F)F)c(OC)c1F    logD    2.83
20   CCCOC(=O)Cc1cc(OC)c(OCC(=O)N(CC)CC)cc1F    logD    2.36
21  CCCOC(=O)Cc1cc(F)c(OCC(=O)N(CC)CC)c(OCC)c1    logD    2.63
22  CCN(CC)C(=O)COc1cc(F)c(CC(=O)OC(C)C)cc1OC    logD    2.19
